biological target: FAP-expressing human WI-38 fibroblasts (Homo sapiens); construct: FAP-expressing human WI-38 fibroblasts (ECACC) were cultured in EMEM; host or cells: WI-38 human fibroblasts; assay: Competitive FACS binding assay; details: competition with 3 nM Cy5-labeled compound, WI-38 fibroblasts, 4° C., 1 hour; read-out: pIC50 Category (FACS) (converted);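 further: flow cytometry read-out of median Cy5 fluorescence on the cells, plotted versus test compound concentration, with IC50 derived by four-parameter logistic curve fitting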
Sequence (Q12884 whole entry): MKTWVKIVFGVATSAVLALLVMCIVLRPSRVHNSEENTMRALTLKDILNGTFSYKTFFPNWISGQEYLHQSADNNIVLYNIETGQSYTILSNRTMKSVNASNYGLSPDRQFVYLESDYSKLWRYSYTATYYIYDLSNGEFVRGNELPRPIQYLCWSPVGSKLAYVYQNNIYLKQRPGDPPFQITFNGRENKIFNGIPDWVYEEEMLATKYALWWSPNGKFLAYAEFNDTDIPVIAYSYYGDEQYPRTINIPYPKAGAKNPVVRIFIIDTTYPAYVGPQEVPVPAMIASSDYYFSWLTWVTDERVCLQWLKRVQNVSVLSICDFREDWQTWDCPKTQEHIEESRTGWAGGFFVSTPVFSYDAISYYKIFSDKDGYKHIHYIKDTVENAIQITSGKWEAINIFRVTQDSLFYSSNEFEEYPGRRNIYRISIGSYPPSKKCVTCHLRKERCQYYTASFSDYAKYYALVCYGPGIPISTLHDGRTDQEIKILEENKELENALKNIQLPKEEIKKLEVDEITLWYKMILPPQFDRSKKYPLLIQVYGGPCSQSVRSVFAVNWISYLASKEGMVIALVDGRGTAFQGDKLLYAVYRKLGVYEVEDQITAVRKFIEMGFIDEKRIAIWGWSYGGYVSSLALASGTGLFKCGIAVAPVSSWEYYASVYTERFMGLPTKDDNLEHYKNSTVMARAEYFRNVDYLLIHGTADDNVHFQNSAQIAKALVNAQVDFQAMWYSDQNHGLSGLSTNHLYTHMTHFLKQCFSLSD
*1 amine or outer side, *2 acyl side, *3 side chain or, on linkers, in order; H or OH if unused. Where a SMILES comes first, the peptide text is derived from it. Bridges are numbered along the chain shown (N, C = ends). [ ]: non-standard residue; d: D form. The star is where a group is joined. ξ: configuration not given here. DOTA = O=C(O)CN1CCN(CC(=O)O)CCN(CC(=O)*)CCN(CC(=O)O)CC1; Maleimide(3,4-diyl) = O=C1NC(=O)C([*:2])=C1[*:1]; ξThr(3R) = C[C@@H](O)C(N)C(=O)O; CO = O=C([*:1])[*:2]; NHBu = CCCCN*
endpoint-name: IC50

Query :: Please give measured IC50 of the following entry: CCCCNC(=O)N[C@H]1CSC2=C(SC[C@@H](C(=O)N[C@@H](CC(=O)O)C(=O)N[C@@H](CCCCNC(=O)CN3CCN(CC(=O)O)CCN(CC(=O)O)CCN(CC(=O)O)CC3)C(N)=O)NC(=O)[C@H](Cc3ccccc3)NC(=O)[C@H](CCC(N)=O)NC(=O)C([C@@H](C)O)NC(=O)[C@@H]3CCCN3C(=O)[C@@H]3CCCN3C1=O)C(=O)NC2=O (stereo partly drawn) [Compound 2014] ({NHBu-CO}-CPP[ξThr(3R)]QFCDK(DOTA)-NH2; linker 1-7 via Maleimide(3,4-diyl))
Result :: < 100 nM
